Origin of values: PubChem BioAssay (EPA / NIEHS)

Target: Cellular tumor antigen p53 (Homo sapiens)
Assay: TOX21_p53_BLA_p5_ratio: Tox21 HCT-116 p53 Agonism Beta-lactamase Assay, Ratio, Phase 5 (AID 2283599)
Records with an inconclusive call do not appear. Activity calls are given as the source filed them. The calls were made as follows: active = hit-call score of the fitted dose curve at least 0.9, where 1 is the maximum; inconclusive = response in the unintended direction; inactive = score below 0.9.
Classes used: yes (1) (active), no (0) (inactive)

[[record]]
molecule = "C=C(C)C(=O)OCCC(F)(F)C(F)(F)C(F)(F)C(F)(F)C(F)(F)C(F)(F)F"
classification = "no (0)"

[[record]]
molecule = "CC(C)(C)CC(C)(C)c1ccc(O)c(-n2nc3ccccc3n2)c1"
classification = "no (0)"

[[record]]
molecule = "CCCCCCCCC(=O)O"
classification = "no (0)"

[[record]]
molecule = "Cc1oc(-c2ccccc2)nc1CCOc1ccc(C[C@H](Nc2ccccc2C(=O)c2ccccc2)C(=O)O)cc1"
classification = "yes (1)"

[[record]]
molecule = "NC(=O)N1C(=O)C(C(=O)c2cc(Cl)cs2)c2cc(F)c(Cl)cc21 (stereo unspecified)"
classification = "yes (1)"

[[record]]
molecule = "Oc1cc2ccccc2c2ccccc12"
classification = "yes (1)"


###

Read-out: Interleukin-8 (IL8), CXCL8 (gene 3576)
Experiment: BSK_LPS_IL8: BioMAP Diversity Plus: LPS Assay for Interleukin-8 (IL8) Biomarker Activity (AID 2283078)
Conditions: primary human HUVEC with PBMC; actives raise or lower the signal
Calls of active or inactive are those of the source. The calls were made as follows: active = hit-call score of the fitted dose curve at least 0.9, where 1 is the maximum; inactive = score below 0.9.
Classes used: active, inactive

[[record]]
compound = "O=[N+]([O-])c1ccc(O)cc1"
classification = "inactive"

[[record]]
compound = "CC(C)(C)CC(C)(C)c1ccc(O)c(-n2nc3ccccc3n2)c1"
classification = "inactive"

[[record]]
compound = "CCC(C)(C)C1CCC(O)CC1 (stereo not given)"
classification = "inactive"

[[record]]
compound = "CN1CCN(c2ccccc2/C=C2\\SCCN(c3ccc(Cl)c(Cl)c3)C2=O)CC1"
classification = "active"

[[record]]
compound = "c1ccc2cc3c(ccc4ccccc43)cc2c1"
classification = "inactive"

[[record]]
compound = "O=C(O)Cc1cc(I)c(Oc2cc(I)c(O)c(I)c2)c(I)c1"
classification = "active"

[[record]]
compound = "CCCCCCCCC(=O)O"
classification = "inactive"

[[record]]
compound = "OC1CCCCC1"
classification = "inactive"

[[record]]
compound = "COC(=O)CCCCC(=O)OC"
classification = "inactive"

[[record]]
compound = "CCc1ccc(CCOc2ccc(CC3SC(=O)NC3=O)cc2)nc1 (stereo not given)"
classification = "inactive"

[[record]]
compound = "CCCCCCCC(=O)O"
classification = "inactive"

[[record]]
compound = "CCCOc1sc(C(=O)N2CCC(c3cc(CN)ccc3F)CC2)c(C)c1Br"
classification = "active"

[[record]]
compound = "CCCCCCCCCCCCc1ccccc1S(=O)(=O)O"
classification = "inactive"

[[record]]
compound = "CCCCC(CC)COC(=O)CCCCC(=O)OCc1ccccc1 (stereo not given)"
classification = "inactive"

[[record]]
compound = "COc1ccc([N+](=O)[O-])cc1N"
classification = "inactive"

[[record]]
compound = "COCC(C)O (stereo not given)"
classification = "inactive"

[[record]]
compound = "NCC(F)(F)C(F)(F)C(F)(F)C(F)(F)C(F)(F)C(F)(F)C(F)(F)F"
classification = "inactive"

[[record]]
compound = "CCC(=C(c1ccc(O)cc1)c1ccc(OCCN(C)C)cc1)c1ccccc1"
classification = "active"

[[record]]
compound = "c1ccc2c(c1)ccc1ccccc12"
classification = "inactive"

[[record]]
compound = "C#C[C@]1(O)CC[C@H]2[C@@H]3CCC4=CC(=O)CC[C@@H]4[C@H]3CC[C@@]21C"
classification = "active"

[[record]]
compound = "Cc1oc(-c2ccccc2)nc1CCOc1ccc(C[C@H](Nc2ccccc2C(=O)c2ccccc2)C(=O)O)cc1"
classification = "active"

[[record]]
compound = "O=c1c(-c2ccc(O)cc2)coc2cc(O)ccc12"
classification = "inactive"

[[record]]
compound = "c1ccc2c(c1)Cc1ccccc1-2"
classification = "inactive"

[[record]]
compound = "CC[C@H](c1ccc(O)cc1)[C@@H](CC)c1ccc(O)cc1"
classification = "active"

[[record]]
compound = "Cc1cc(CCN2CCN(c3nsc4ccccc34)CC2)cc2c1NC(=O)CC2(C)C"
classification = "active"

[[record]]
compound = "CCCCCCCCCCCCCCCS(=O)(=O)Oc1ccccc1"
classification = "inactive"

[[record]]
compound = "OC1CCC(C2CCCCC2)CC1 (stereo not given)"
classification = "inactive"

[[record]]
compound = "NC(=O)N1C(=O)C(C(=O)c2cc(Cl)cs2)c2cc(F)c(Cl)cc21 (stereo not given)"
classification = "inactive"

[[record]]
compound = "Cc1cc(C)c(O)c(C)c1"
classification = "inactive"

[[record]]
compound = "ClC1=C(Cl)C(Cl)(Cl)C(Cl)=C1Cl"
classification = "active"

[[record]]
compound = "CC[C@H](C)[C@@H](C(=O)O)n1sc2ccccc2c1=O"
classification = "inactive"

[[record]]
compound = "NC(=O)N(O)[C@@H]1C=C[C@H](Oc2cccc(Oc3ccc(F)cc3)c2)C1"
classification = "inactive"

[[record]]
compound = "CCc1nn(C2CCCCC2)c2cc(C3(C#N)CCC(C(=O)O)CC3)ccc12 (stereo not given)"
classification = "active"

[[record]]
compound = "Nc1cccc2c(N)cccc12"
classification = "inactive"

[[record]]
compound = "CCCCCCC(=O)O"
classification = "inactive"

[[record]]
compound = "OCCC(F)(F)C(F)(F)C(F)(F)C(F)(F)C(F)(F)C(F)(F)F"
classification = "inactive"

[[record]]
compound = "CCN(CC)CCNc1ccc(CNC=O)c2sc3ccc(OC)cc3c(=O)c12"
classification = "active"

[[record]]
compound = "CCCCCCCCCCCCN1CCCC1=O"
classification = "active"

[[record]]
compound = "COCC(C)OCC(C)O (stereo not given)"
classification = "inactive"

[[record]]
compound = "Oc1cccc(O)c1"
classification = "inactive"

[[record]]
compound = "CC(C)(C)c1cccc(C(C)(C)C)c1O"
classification = "inactive"

[[record]]
compound = "CC(C)(C)c1ccc(O)c(C(C)(C)C)c1"
classification = "active"

[[record]]
compound = "CN(C)C=O"
classification = "inactive"

[[record]]
compound = "CC(O)CO (stereo not given)"
classification = "inactive"

[[record]]
compound = "CCCCCCCCCCCCCC[N+](C)(C)C"
classification = "active"

